- Assay text: NCI Yeast Anticancer Drug Screen. Data for the bub3 strain (AID 167)
- Stated conditions: S. cerevisiae bub3 mutant strain, at 50.0 µM, stronger effect = higher value
- Experimental: Growth inhibition of yeast strains with defined genetic alterations is measured as a screen for potential anti-cancer activity. Selected strains with alterations in DNA damage repair or cell cycle control were exposed to compounds and growth inhibition was measured relative to vehicle treated controls. The strain used in this assay is bub3
This is part of a sample that, as a whole, favours compounds with a hit. Of some 79,000 tested, about 15% had one in any assay. Active and inactive are the calls of the source. Cut-off read from the data, not from the text of the source: active = growth inhibition above about 70%; inactive = the rest.
Recorded endpoint: growth inhibition

Use the examples below as a reference point.
Cc1ncc2c(n1)NC(=O)NC2; -23.1% (inactive)
CC(=O)N(CCCc1ccccc1)C(C)(C)C; 2.25% (inactive)

Kindly review the next compound as well.
// Cc1cc(=O)[nH]c(Nc2nc3ccccc3[nH]2)n1 : growth inhibition value = -1.4% (inactive)

====

- Assay text: NCI Yeast Anticancer Drug Screen. Data for the sgs1 mgt1 strain (AID 161);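 note: 0% = growth of cultures given vehicle only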
- Stated conditions: S. cerevisiae sgs1 mgt1 strain, at 50.0 µM
About 79,000 compounds went through this panel and 15% of them were active in at least one assay; those are over-represented in the sample as a whole. Active and inactive are the calls of the source. Cut-off read from the data, not from the text of the source: active = growth inhibition above about 70%; inactive = the rest.
The reply should name one outcome from active, inactive

Task item: Please state the recorded outcome for this compound: OC1CCCC2OC2CC1 (stereo not drawn)
Reply: inactive

Task item: Please state the recorded outcome for this compound: FS(F)(F)(F)(F)c1cccc(NC(=S)SCc2ccc3c(c2)OCO3)c1
Reply: active

Task item: Please state the recorded outcome for this compound: CNC(=O)OCc1c(-c2ccccc2)c(-c2ccccc2)n(C)c1COC(=O)NC
Reply: inactive

====

- Assay text: NCI Yeast Anticancer Drug Screen. Data for the mlh1 rad18 strain (AID 175)
- Stated conditions: S. cerevisiae mlh1 rad18 strain growth inhibition; at 50.0 µM; stronger effect = higher value
This is part of a sample that, as a whole, favours compounds with a hit. Of some 79,000 tested, about 15% had one in any assay. Calls of active or inactive are those of the source. Cut-off read from the data, not from the text of the source: active = growth inhibition above about 70%; inactive = the rest.
Entries annotated with measured growth inhibition

CCCCCCCCCCCC1=C(O)C(=O)C(Br)=C(O)C1=O; 49.9% (inactive)
Oc1ccc(Cl)c(O)c1; 21.7% (inactive)
[O-]/[N+](=C\c1ccccc1)[C@H](COCc1ccccc1)c1ccccc1; -5.5% (inactive)
C[N+](C)(Cc1ccccc1)c1ccccc1; -11.2% (inactive)

Kindly review the next compound as well.
// CSc1ccc(NC(=O)Nc2ccccc2C(F)(F)F)cc1 : growth inhibition value = 27% (inactive)

====

- Assay text: NCI Yeast Anticancer Drug Screen. Data for the mec2-1 strain (AID 157)
- Stated conditions: S. cerevisiae mec2-1 strain, at 50.0 µM, stronger effect = higher value
- Protocol: Growth inhibition of yeast strains with defined genetic alterations is measured as a screen for potential anti-cancer activity. Selected strains with alterations in DNA damage repair or cell cycle control were exposed to compounds and growth inhibition was measured relative to vehicle treated controls. The strain used in this assay is mec2-1
About 79,000 compounds went through this panel and 15% of them were active in at least one assay; those are over-represented in the sample as a whole.
Recorded endpoint: growth inhibition (%)
Report as a plain number; the unit % is understood.

Cc1csc2c1-n1cccc1C2=O; 1
c1ccc(-c2cc(CNc3nc4ccccc4s3)on2)cc1; 10.7
C(=N\OCc1ccccc1)/c1ncccc1C1OCCO1; -23.1
C[C@H](C(O)CC(=O)C(C)(C)O)[C@H]1CC[C@@]2(C)[C@@H]3CC[C@H]4C(C)(C)[C@@H](OC5OC(COC6OC(CO)C(O)C(O)C6O)C(O)C(O)C5O)CC[C@]4(C)C3=CC[C@]12C (stereo partly specified); -19.3

// O=[N+]([O-])c1ccc(SCN(CSc2ccc([N+](=O)[O-])cc2)Cc2ccccc2)cc1 : growth inhibition value = -6.85

// Nc1ncc2[nH]c(I)nc2n1 : growth inhibition value = 19.9
